Data credit: PubChem BioAssay (NCI)

# Tested on: SK-MEL-5 melanoma
# measurement_description: NCI-60 one-dose screen, 48 h (100 = growth as untreated, 0 = no growth, -100 = all killed)
# condition_notes: 10 µM
The panel holds about 83,000 compounds, 20% with a hit somewhere; the sample as a whole holds those more often.
quantity_name: growth (%)
Enter your answer as a number in %; do not include the unit.

# annotated cases, reported growth shown
>  <compound>
O=C(c1ccccc1)N(C(=O)c1ccccc1)N1CCCC1

>  <recorded_measurement>
98.4

$$$$
>  <compound>
COC(=O)C1(O)NC(=C(C#N)C#N)C(C#N)=C1C(=O)c1ccc(OC)c(OC)c1 (centres undefined)

>  <recorded_measurement>
101

$$$$
>  <compound>
COc1ccc(-c2nn(-c3cccc(Cl)c3)cc2/C=C2\NC(=S)N(c3ccc(Cl)cc3)C2=O)cc1

>  <recorded_measurement>
24.2

$$$$

Q: I have this compound here, `CC(C)(C)c1ccc(S(=O)(=O)Oc2ccc(NC(=O)C3CCCCC3)cc2)cc1` , and I need its recorded growth.
Ans: 26.3

Q: Suppose we examine the compound `O=C(CN1CCN(C(=O)c2ccccc2)CC1)Nc1ccccc1SCc1ccccc1` ; what growth value has been reported?
Ans: 56.9

Q: Using the record for CC(=O)O[C@@]12CO[C@@H]1C[C@H](O)[C@@]1(C)C(=O)[C@H](O)C3=C(C)[C@@H](OC(=O)[C@H](O)[C@@H](NC(=O)OC(C)(C)C)c4ccccc4)C[C@@](O)([C@@H](OC(=O)c4ccccc4)C12)C3(C)C (some centres undefined) , report its growth.
Ans: 28.6

Q: Look up growth: `CNS(=O)(=O)Oc1ccc(-c2ccc3occc3c2)cc1`
Ans: 101

Q: Reported growth for COc1cc(CNC(=O)C2CSC3(C)c4ccccc4C(=O)N23)cc(OC)c1OC (centres undefined) : what is it?
Ans: 102

Q: Query (compound): N#CC1=C(N)Oc2cc(N)ccc2C1c1cccnc1 (centres undefined) ; field requested: growth
Ans: 99.3

====

# System: A549/ATCC NSCLC
# measurement_description: NCI-60 one-dose screen, 48 h (100 = growth as untreated, 0 = no growth, -100 = all killed)
# condition_notes: 10 µM
Compounds without any hit were thinned out: in the full panel of roughly 83,000, 20% have a hit.
Hi! Could you tag entries with growth below 90% as class 1, and those at or above as class 0? Much appreciated.

Known results for compounds:
>  <compound>
O=S(=O)(Oc1ccc(-c2ccc3sccc3c2)cc1)c1ccc(F)cc1

>  <classification>
class 0

$$$$
>  <compound>
COc1cc2cc(Oc3ccc(NC(=O)c4cccc(C(F)(F)F)c4)cc3)c(C)nc2cc1OC

>  <classification>
class 1

$$$$
>  <compound>
NC(N)=N/N=C(\N=Nc1ccccc1)c1ccc(Cl)cc1

>  <classification>
class 1

$$$$
>  <compound>
CC(=O)[C@H]1CC[C@]2(C)[C@@H]1CC[C@@H]1[C@@]3(C)CC(CCC#N)(CCC#N)C(=O)C(C)(C)[C@@H]3CC[C@]12C

>  <classification>
class 0

$$$$
>  <compound>
CC(=O)Nc1ccc2c(c1)C(=O)c1cccc(C(=O)O)c1-2

>  <classification>
class 0

$$$$

Q: API: query returns whether the compound falls strictly under 90% in growth. Query: `Nc1nccc(OCCO)n1`
Ans: class 0

Q: For this compound, is growth lower than 90%? `COc1cc2c3c(n(C4CCN(C)CC4)c(=O)c2cc1OC)-c1cc2c(cc1C3=O)OCO2`
Ans: class 1

Q: Lab note: growth threshold 90%. Does this compound come in strictly under it? `CC(C)(C)c1ccc(S(=O)(=O)N[C@H]2CC[C@H]3[C@@H]4CCc5cc(OS(=O)(=O)O)ccc5[C@H]4CC[C@]23C)cc1`
Ans: class 1

Q: Item `CC(C)(C)c1ccc(S(=O)(=O)N[C@H]2CC[C@H]3[C@@H]4CCc5cc(O)ccc5[C@H]4CC[C@]23C)cc1` : growth beneath 90%, strictly?
Ans: class 1

Q: growth under 90%? Item: COc1ccc2c(c1)OC(N)=C(C#N)C2c1cc(OC)c(OC)c(OC)c1 (stereo not given)
Ans: class 1
